biological target: recombinant SARS-CoV-2 Main protease (Mpro) (Severe acute respiratory syndrome coronavirus 2 (2019-nCoV) (SARS-CoV-2), UniProt P0DTD1); assay: Cov Mpro Biochemical IC50 Assay; conditions: recombinant SARS-CoV-2 Mpro 7.5 nM, fluorogenic peptide substrate 40 μM; read-out: MPro IC50
Measured IC50, listed per entry.

{"compound": "N#CCCn1c(=O)n(-c2cncc(C(F)(F)F)c2)c(=O)c2sc(-c3ccccc3C#N)cc21 [Example 890]", "IC50": "75 nM"}
{"compound": "Cc1cc(C#N)c(-c2cc3c(s2)c(=O)n(-c2cncc4cnn(C)c24)c(=O)n3CCC#N)cc1F [Example 786]", "IC50": "27.9 nM"}
{"compound": "COc1cc(-c2cc3[nH]c(=O)n(-c4cncc5cccnc45)c(=O)c3s2)c(Cl)cc1F (single isomer, unassigned) [Example 1009]", "IC50": "3.99 nM"}
{"compound": "Cc1ccc(C#N)cc1-c1cc2c(s1)c(=O)n(-c1cncc3cnn(C)c13)c(=O)n2CCC#N [Example 809]", "IC50": "54.2 nM"}
{"compound": "COc1cc(-c2cc3c(s2)c(=O)n(-c2cncc4ccccc24)c(=O)n3Cc2cc(F)c(F)c(F)c2)c(Cl)cc1F [Example 1099]", "IC50": "388 nM"}
{"compound": "COc1cccc(C#N)c1-c1cc2c(s1)c(=O)n(-c1cncc3ccccc13)c(=O)n2CCC#N [Example 820]", "IC50": "5.73 nM"}
{"compound": "COc1ccc(Cl)c(-c2cc3[nH]c(=O)n(-c4cncc5c4cnn5C)c(=O)c3s2)c1 [Example 497]", "IC50": "6.24 nM"}
{"compound": "CC(=O)NCCn1c(=O)n(-c2cncc3ccccc23)c(=O)c2sc(-c3ccccc3Cl)cc21 [Example 614]", "IC50": "35 nM"}
{"compound": "COc1cc(-c2cc3c(s2)c(=O)n(-c2cncc4nnn(C)c24)c(=O)n3CCC#N)c(Cl)cc1F (single isomer, unassigned) [Example 1058]", "IC50": "2.86 nM"}
{"compound": "COc1ccc2cncc(-n3c(=O)[nH]c4cc(-c5ccccc5Cl)sc4c3=O)c2c1 (single isomer, unassigned) [Example 440]", "IC50": "< 3.94 nM"}
{"compound": "COc1cc(-c2cc3[nH]c(=O)n(-c4cncc(C)c4Cl)c(=O)c3s2)c(Cl)cc1F [Example 1080]", "IC50": "20.4 nM"}
{"compound": "O=c1[nH]c2cc(-c3ccccc3Cl)sc2c(=O)n1-c1cncc2cnccc12 [Example 584]", "IC50": "12.9 nM"}
{"compound": "COc1cc(-c2cc3[nH]c(=O)n(-c4cncc5scc(C)c45)c(=O)c3s2)c(Cl)cc1F (single isomer, unassigned) [Example 1057]", "IC50": "145 nM"}
{"compound": "N#CCn1c(=O)n(-c2cncc3cccnc23)c(=O)c2sc(-c3ccccc3Cl)cc21 [Example 710]", "IC50": "< 4.33 nM"}

Reference source: patent US20240116946A1
